Target: SMYD3 (Homo sapiens (Human))
Test: SMYD3 biochemical assay (SMYD3 enzyme assay on MEKK2 protein substrate, 3H-SAM scintillation proximity assay)
Details: read-out: SMYD3 Biochem IC50 (μM)*
So basically: is IC50 under 40 µM? Then Condition met. Not under? Then Condition not met.

                               given_smiles        group_label
0  CCOC(=O)C1(CNC(=O)c2ccc3c(c2)CC(=O)N3)CCNCC1  Condition not met
1         N[C@H]1CC[C@H](NC(=O)c2ccncc2)CC1  Condition not met
2  CC(=O)Nc1ccc(S(=O)(=O)N2CCC(NC(=O)c3cn(C)cn3)CC2)cc1  Condition not met
3  NCC(=O)N[C@H]1CC[C@H](NC(=O)c2ccc3c(c2)CC(=O)N3)CC1      Condition met
4  N[C@H]1CC[C@H](NC(=O)c2cccc3c2OCC(=O)N3)CC1  Condition not met
5  NCCC(=O)N[C@H]1CC[C@H](NC(=O)c2ccc3c(c2)OCO3)CC1  Condition not met
6  N[C@H]1CC[C@H](NC(=O)c2ccc3ccc(O)nc3c2)CC1  Condition not met
7  N[C@@H](Cc1c[nH]c2ccccc12)C(=O)N1CCC(NC(=O)c2ccc3c(c2)CC(=O)N3)CC1      Condition met

* * *

Listing of recorded IC50 by entry.
Target: SMYD3 (Homo sapiens (Human), UniProt Q9H7B4)
Sequence (Q9H7B4 whole entry): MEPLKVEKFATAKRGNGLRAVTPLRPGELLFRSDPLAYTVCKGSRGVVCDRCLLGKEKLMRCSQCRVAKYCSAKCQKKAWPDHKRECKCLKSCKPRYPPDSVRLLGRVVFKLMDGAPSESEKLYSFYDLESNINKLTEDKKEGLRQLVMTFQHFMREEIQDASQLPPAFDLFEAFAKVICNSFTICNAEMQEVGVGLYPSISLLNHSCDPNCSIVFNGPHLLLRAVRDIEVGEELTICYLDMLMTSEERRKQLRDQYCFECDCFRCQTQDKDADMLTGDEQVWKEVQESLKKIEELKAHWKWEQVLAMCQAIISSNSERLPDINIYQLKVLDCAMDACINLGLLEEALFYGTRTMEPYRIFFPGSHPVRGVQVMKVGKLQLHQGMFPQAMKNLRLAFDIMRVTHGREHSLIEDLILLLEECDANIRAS
Assay: SMYD3 biochemical assay (SMYD3 enzyme assay on MEKK2 protein substrate, 3H-SAM scintillation proximity assay)
Details: read-out: SMYD3 Biochem IC50 (μM)*
OBSERVED_PROPERTY: IC50 (µM)

In [3]: df
Out[3]:
                               given_smiles                             target_entity  censoring_qualifier  recorded_value
0  N[C@H]1CC[C@H](NC(=O)c2ccc3nc(O)cnc3c2)CC1  SMYD3 (Homo sapiens (Human), UniProt Q9H7B4)                    =            60.4
1   N[C@H]1CC[C@H](NC(=O)c2ccc3ccccc3n2)CC1  SMYD3 (Homo sapiens (Human), UniProt Q9H7B4)                    >             100
2          Cc1cc2[nH]c(C(=O)NC3CCNCC3)cc2o1  SMYD3 (Homo sapiens (Human), UniProt Q9H7B4)                    =            76.1
3  N[C@H]1CC[C@H](NC(=O)c2ccc3c(c2)NC(=O)CN3)CC1  SMYD3 (Homo sapiens (Human), UniProt Q9H7B4)                    =            77.5
4             CCc1ncc(C(=O)Nc2ccc(CN)cc2)s1  SMYD3 (Homo sapiens (Human), UniProt Q9H7B4)                    =             114
5  Nc1ccc2cc(C(=O)N[C@H]3CC[C@H](N)CC3)ccc2c1  SMYD3 (Homo sapiens (Human), UniProt Q9H7B4)                    =            62.5
6  CC(=O)Nc1ccc(S(=O)(=O)N2CCC(NC(=O)c3cn(C4CC4)nn3)CC2)cc1  SMYD3 (Homo sapiens (Human), UniProt Q9H7B4)                    =              17
7  N[C@H]1CC[C@H](NC(=O)c2ccc3c(c2)OCC(=O)N3)CC1  SMYD3 (Homo sapiens (Human), UniProt Q9H7B4)                    =             102
8  NCCC(=O)N[C@H]1CC[C@H](NC(=O)c2nccnc2N)CC1  SMYD3 (Homo sapiens (Human), UniProt Q9H7B4)                    >             100

The measured values listed here are drawn from patent US10266526B2.
